Where do these numbers come from? They come from paper PMC8711653.

MEASURE NAME: melting point

These recorded examples may help you get a feel for the data.
In [3]: df
Out[3]:
                                   molecule  recorded_value
0  Cc1c[nH]c2ncnc(N[C@H]3CCCC[C@@H]3NC(=NC#N)Nc3cccc(I)c3)c12 [Compound 26]   128 to 129 °C
1  Cc1c[nH]c2ncnc(N[C@H]3CCCC[C@@H]3NC(=NC#N)Nc3cccc(Br)c3)c12 [Compound 25]   127 to 128 °C
2  Cc1c[nH]c2ncnc(N[C@H]3CC[C@H](NC(=NC#N)Nc4cccc(Br)c4)CC3)c12 [Compound 18]   127 to 128 °C
3  Cc1c[nH]c2ncnc(NCCCCNC(=NC#N)Nc3cccc(Br)c3)c12 [Compound 15]     97 to 98 °C
4  Cc1c[nH]c2ncnc(N[C@H]3CC[C@H](NC(=NC#N)Nc4cccc(I)c4)CC3)c12 [Compound 19]   129 to 130 °C

**Query** Endpoint output: melting point of Cc1c[nH]c2ncnc(N[C@@H]3CCCC[C@H]3NC(=NC#N)Nc3cccc(Br)c3)c12 [Compound 23] . Value?
**Result** 127 to 128 °C

**Query** And Cc1c[nH]c2ncnc(NCCCNC(=NC#N)Nc3cccc(Br)c3)c12 [Compound 12] ?
**Result** 88 to 89 °C

**Query** And Cc1c[nH]c2ncnc(NCCCCNC(=NC#N)Nc3cccc(Cl)c3)c12 [Compound 14] ?
**Result** 90 to 91 °C

**Query** And Cc1c[nH]c2ncnc(NCCCNC(=NC#N)Nc3cccc(Cl)c3)c12 [Compound 11] ?
**Result** 88 to 90 °C

====

target: LIMK1 (Homo sapiens, UniProt P53667); construct: purchased Promega; test: LIMK1 ADP-Glo kinase assay (Promega); assay type: biochemical; conditions: 0.1 μM compound; Promega ADP-Glo kinase assay; Table 1; read-out: % LIMK1 inhibition at 0.1 μM
Sequence (P53667 whole entry): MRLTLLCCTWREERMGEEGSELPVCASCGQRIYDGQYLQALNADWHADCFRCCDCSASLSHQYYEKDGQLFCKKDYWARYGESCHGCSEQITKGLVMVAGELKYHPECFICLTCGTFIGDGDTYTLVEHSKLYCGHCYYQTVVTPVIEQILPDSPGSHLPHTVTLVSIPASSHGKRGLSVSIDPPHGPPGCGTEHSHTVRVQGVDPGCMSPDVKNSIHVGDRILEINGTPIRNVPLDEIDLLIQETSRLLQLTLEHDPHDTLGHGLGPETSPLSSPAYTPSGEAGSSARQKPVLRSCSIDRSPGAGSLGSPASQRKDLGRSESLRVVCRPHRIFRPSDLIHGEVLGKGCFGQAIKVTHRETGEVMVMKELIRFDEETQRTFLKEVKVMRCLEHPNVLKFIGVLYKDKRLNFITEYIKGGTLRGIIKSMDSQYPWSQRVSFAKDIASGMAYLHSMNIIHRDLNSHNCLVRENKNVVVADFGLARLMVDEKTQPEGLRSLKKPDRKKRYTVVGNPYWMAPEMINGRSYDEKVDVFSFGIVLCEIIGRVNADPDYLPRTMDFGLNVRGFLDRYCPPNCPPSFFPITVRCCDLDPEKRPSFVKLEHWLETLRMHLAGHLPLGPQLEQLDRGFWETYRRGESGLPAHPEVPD
MEASURE NAME: inhibition at 0.1 µM (%)

These recorded examples may help you get a feel for the data.
>>> print(df.to_string())
                                   molecule  recorded_value
0  Cc1c[nH]c2ncnc(N[C@H]3CC[C@H](NC(=NC#N)Nc4cccc(Cl)c4)CC3)c12            41.7
1  Cc1c[nH]c2ncnc(NCCNC(=NC#N)Nc3cccc(I)c3)c12            17.8
2  Cc1c[nH]c2ncnc(N[C@H]3CC[C@H](NC(=NC#N)Nc4cccc(I)c4)CC3)c12            66.6
3  Cc1c[nH]c2ncnc(N3CCN(/C(=N/C#N)Nc4cccc(Br)c4)[C@@H](C)C3)c12 [Compound 1, reference compound]            94.3
4  Cc1c[nH]c2ncnc(NCCNC(=NC#N)Nc3cccc(Br)c3)c12            29.4

(1) Cc1c[nH]c2ncnc(NCCCNC(=NC#N)Nc3cccc(Cl)c3)c12
(2) Cc1c[nH]c2ncnc(NCCCCNC(=NC#N)Nc3cccc(Br)c3)c12
**Query** // which entry has the larger inhibition at 0.1 µM value, 1 or 2 ? Please identify the chosen entry by its label.
**Result** 2
(2: 47.1%, 1: 15%)

====

biological target: LIMK2 (Homo sapiens, UniProt P53671); construct: purchased Reaction Biology Corporation; experiment: 33P-ATP radiotracer assay, LIMK2 (Reaction Biology Corporation); type: biochemical; details: 33P transfer from ATP to cofilin; 10 μM 33P-ATP, 1 μM cofilin; triplicate
Sequence (P53671 whole entry): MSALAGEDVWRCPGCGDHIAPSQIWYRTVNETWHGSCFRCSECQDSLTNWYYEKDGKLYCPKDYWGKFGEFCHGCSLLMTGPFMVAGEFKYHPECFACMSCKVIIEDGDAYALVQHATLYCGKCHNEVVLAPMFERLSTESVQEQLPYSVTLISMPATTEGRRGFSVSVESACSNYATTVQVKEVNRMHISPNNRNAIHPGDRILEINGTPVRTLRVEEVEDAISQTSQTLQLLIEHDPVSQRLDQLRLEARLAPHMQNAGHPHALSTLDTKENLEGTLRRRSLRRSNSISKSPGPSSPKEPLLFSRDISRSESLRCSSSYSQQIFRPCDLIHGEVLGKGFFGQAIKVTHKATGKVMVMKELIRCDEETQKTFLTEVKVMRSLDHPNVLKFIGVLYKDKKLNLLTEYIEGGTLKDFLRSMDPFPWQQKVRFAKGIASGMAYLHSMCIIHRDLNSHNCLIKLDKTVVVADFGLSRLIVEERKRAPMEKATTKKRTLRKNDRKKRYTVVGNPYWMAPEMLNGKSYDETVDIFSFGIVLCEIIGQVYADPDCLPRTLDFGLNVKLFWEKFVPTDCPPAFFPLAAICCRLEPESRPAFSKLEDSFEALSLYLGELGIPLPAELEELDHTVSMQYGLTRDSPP
MEASURE NAME: IC50 (µM)

These recorded examples may help you get a feel for the data.
                                   compound  measure_name  measurement_units  recorded_value
0  Cc1c[nH]c2ncnc(N[C@@H]3CCCC[C@H]3NC(=NC#N)Nc3cccc(Br)c3)c12          IC50                 µM            2.65
1  Cc1c[nH]c2ncnc(N3CCN(C(=NC#N)Nc4cccc(I)c4)[C@@H](C)C3)c12          IC50                 µM         0.00047

(A) Cc1c[nH]c2ncnc(N3CCN(/C(=N/C#N)Nc4cccc(Br)c4)[C@@H](C)C3)c12 [Compound 1, reference compound]
(B) Cc1c[nH]c2ncnc(N[C@@H]3CCCC[C@H]3NC(=NC#N)Nc3cccc(I)c3)c12
**Query** // which entry has the larger IC50 value, A or B ? Please identify the chosen entry by its label.
**Result** B
